- Tested on: ALL-SIL
- procedure details: selective drug sensitivity score (sDSS, relative to normal bone marrow) (sDSS (score)); higher = more potent and effective on the cell line relative to normal bone marrow cells;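 also: ALL cell lines in 384-well plates, five doses spanning 10,000-fold, each plate scaled between vehicle and 100 µmol/L benzalkonium chloride controls, sDSS an adapted area-under-curve metric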
- applied conditions: 72 h
Everything with selective drug sensitivity score lower than 1 is F; everything else, including exactly 1, is T.

# count of solved cases: 3
{"compound": "Cn1cnc2c(F)c(Nc3ccc(Br)cc3Cl)c(C(=O)NOCCO)cc21 [Selumetinib] (top concentration 10000 nM)", "class label": "F"}
{"compound": "O=c1ncn2nc(Sc3ccc(F)cc3F)ccc2c1-c1c(Cl)cccc1Cl [Neflamapimod] (top concentration 10000 nM)", "class label": "T"}
{"compound": "O=c1[nH]c(=O)n([C@H]2C[C@H](O)[C@@H](CO)O2)cc1C(F)(F)F [Trifluridine] (top concentration 10000 nM)", "class label": "T"}

IN: Please check the record CO[C@H]1C[C@@H]2CC[C@@H](C)[C@@](O)(O2)C(=O)C(=O)N2CCCC[C@H]2C(=O)O[C@H]([C@H](C)C[C@@H]2CC[C@@H](OCCO)[C@H](OC)C2)CC(=O)[C@H](C)/C=C(\C)[C@@H](O)[C@@H](OC)C(=O)[C@H](C)C[C@H](C)/C=C/C=C/C=C/1C [Everolimus] (top concentration 100 nM) and state if its selective drug sensitivity score is at or above 1.
OUT: F

IN: Please check the record CNC(=O)c1cccc(-c2ccc3c(N4CCOC[C@@H]4C)nc(N4CCOC[C@@H]4C)nc3n2)c1 [Vistusertib] (top concentration 10000 nM) and state if its selective drug sensitivity score is at or above 1.
OUT: T

====

- Tested on: REH
- procedure details: selective drug sensitivity score (sDSS, relative to normal bone marrow) (sDSS (score)); higher = more potent and effective on the cell line relative to normal bone marrow cells
- applied conditions: 72 h
Everything with selective drug sensitivity score lower than 2 is NOT MET; everything else, including exactly 2, is MET.

# count of solved cases: 2
{"molecule": "Nc1cc(C(F)(F)F)c(-c2cc(N3CCOCC3)nc(N3CCOCC3)n2)cn1 [Buparlisib] (top concentration 10000 nM)", "class label": "MET"}
{"molecule": "O=C(/C=C\\n1cnc(-c2cc(C(F)(F)F)cc(C(F)(F)F)c2)n1)NNc1cnccn1 [Selinexor] (top concentration 10000 nM)", "class label": "MET"}

IN: Please check the record O=C(O)CCCCC(CCSCc1ccccc1)SCc1ccccc1 (configuration not stated) [Devimistat (CPI-613)] (top concentration 10000 nM) and state if its selective drug sensitivity score is at or above 2.
OUT: NOT MET

IN: Please check the record CCCCC(=O)OCC(=O)[C@]1(O)Cc2c(O)c3c(c(O)c2[C@@H](O[C@H]2C[C@H](NC(=O)C(F)(F)F)[C@H](O)[C@H](C)O2)C1)C(=O)c1c(OC)cccc1C3=O [Valrubicin] (top concentration 5000 nM) and state if its selective drug sensitivity score is at or above 2.
OUT: MET

IN: Please check the record COc1cc2c(Nc3ccc(Cl)c(Cl)c3F)ncnc2cc1OC[C@@H]1C[C@@H]2CN(C)C[C@@H]2C1 [Tesevatinib] (top concentration 1000 nM) and state if its selective drug sensitivity score is at or above 2.
OUT: NOT MET

IN: Please check the record CN(Cc1cnc2nc(N)nc(N)c2n1)c1ccc(C(=O)N[C@@H](CCC(=O)O)C(=O)O)cc1 [Methotrexate] (top concentration 5000 nM) and state if its selective drug sensitivity score is at or above 2.
OUT: NOT MET

IN: Please check the record C[C@H]1C[C@@H](n2c(Nc3ccc(OC(F)(F)F)cc3)nc3cc(CCC(=O)O)ccc32)CC(C)(C)C1 (top concentration 10000 nM) and state if its selective drug sensitivity score is at or above 2.
OUT: NOT MET

IN: Please check the record COc1c(C)cnc(Cn2cnc3c(Cl)nc(N)nc32)c1C [BIIB021] (top concentration 10000 nM) and state if its selective drug sensitivity score is at or above 2.
OUT: MET

IN: Please check the record O=C(Nc1cc(Cl)cc2c1[nH]c1cnccc12)c1cccnc1 [PS-1145] (top concentration 25000 nM) and state if its selective drug sensitivity score is at or above 2.
OUT: NOT MET

====

- Test system: PF-382
- procedure details: selective drug sensitivity score (sDSS, relative to normal bone marrow) (sDSS (score)); higher = more potent and effective on the cell line relative to normal bone marrow cells
- applied conditions: 72 h
property measured: selective drug sensitivity score
# respond with the number and nothing more

{"compound": "CON(C)C(=O)N1N=C(c2cc(F)ccc2F)S[C@@]1(CCCN)c1ccccc1 [Filanesib] (top concentration 1000 nM)", "tested on": "PF-382", "recorded result": 12.5}
{"compound": "C[C@H]1CN(C2COC2)CCN1c1ccc(Nc2cc(-c3ccnc(N4CCn5c(cc6c5CC(C)(C)C6)C4=O)c3CO)cn(C)c2=O)nc1 [GDC-0853] (top concentration 1000 nM)", "tested on": "PF-382", "recorded result": 0}

Entry under test: O=C(O)CC1CC(c2ccccc2)=NO1 (stereo not drawn) [VGX-1027] (top concentration 10000 nM) . Its selective drug sensitivity score was -0.04

====

- System: KOPN-8
- procedure details: selective drug sensitivity score (sDSS, relative to normal bone marrow) (sDSS (score)); higher = more potent and effective on the cell line relative to normal bone marrow cells
- applied conditions: 72 h
The entries below come with measured selective drug sensitivity score values attached.
# respond with the number and nothing more

{"compound": "CCC1=C[C@@H]2CN(C1)Cc1c([nH]c3ccccc13)[C@@](C(=O)OC)(c1cc3c(cc1OC)N(C)[C@H]1[C@@](O)(C(=O)OC)[C@H](OC(C)=O)[C@]4(CC)C=CCN5CC[C@]31[C@@H]54)C2 [Vinorelbine] (top concentration 10000 nM)", "property measured": "selective drug sensitivity score", "recorded result": 25.8}

Please look at the following compound next.
Entry under test: COc1cc(Nc2ncc(F)c(Nc3ccc4c(n3)NC(=O)C(C)(C)O4)n2)cc(OC)c1OC [Tamatinib] (top concentration 10000 nM) . Its selective drug sensitivity score was -2.12

====

- Tested on: 697
- procedure details: selective drug sensitivity score (sDSS, relative to normal bone marrow) (sDSS (score)); higher = more potent and effective on the cell line relative to normal bone marrow cells
- applied conditions: 72 h
property measured: selective drug sensitivity score
# respond with the number and nothing more

{"molecule": "C[C@H](Nc1ncnc2nc[nH]c12)c1cc2cccc(Cl)c2c(=O)n1-c1ccccc1 [Duvelisib] (top concentration 500 nM)", "property measured": "selective drug sensitivity score", "recorded result": 2.16}
{"molecule": "Nc1ccn([C@@H]2O[C@H](CO)[C@@H](O)C2(F)F)c(=O)n1 [Gemcitabine] (top concentration 1000 nM)", "property measured": "selective drug sensitivity score", "recorded result": 21}

Entry under test: Nc1ncnc2c1nc(N)n2[C@@H]1O[C@H](CO)[C@@H](O)[C@H]1O [8-amino-adenosine] (top concentration 50000 nM) . Its selective drug sensitivity score was 6.48

Entry under test: COC12C(COC(N)=O)C3=C(C(=O)C(C)=C(N)C3=O)N1CC1NC12 (stereo in doubt) [Mitomycin_C] (top concentration 10000 nM) . Its selective drug sensitivity score was 2.34

Entry under test: Cc1nc2cccc(N)c2c(=O)n1C1CCC(=O)NC1=O (stereo unspecified) [Avadomide (CC122)] (top concentration 10000 nM) . Its selective drug sensitivity score was 2.7

Entry under test: O=S(=O)(c1cccc2c(O)nccc12)N1CCCNCC1 [Hydroxyfasudil] (top concentration 19000 nM) . Its selective drug sensitivity score was 1.18

====

- Tested on: HAL-01
- procedure details: selective drug sensitivity score (sDSS, relative to normal bone marrow) (sDSS (score)); higher = more potent and effective on the cell line relative to normal bone marrow cells
- applied conditions: 72 h
The entries below come with measured selective drug sensitivity score values attached.
# respond with the number and nothing more

Entry under test: CC[C@H](CC#N)OC(=O)N[C@@H](C)c1cccc(NC(=O)Nc2ccc(-c3cnco3)c(OC)c2)c1 [AVN944] (top concentration 10000 nM) . Its selective drug sensitivity score was 5.54

Entry under test: C[C@H]1CN(C2COC2)CCN1c1ccc(Nc2cc(-c3ccnc(N4CCn5c(cc6c5CC(C)(C)C6)C4=O)c3CO)cn(C)c2=O)nc1 [GDC-0853] (top concentration 1000 nM) . Its selective drug sensitivity score was 0

Entry under test: CC(C)(C)Cn1c(N)nc2ccc(-c3[nH]c(C(C)(C)C)nc3-c3ccc(F)cc3)nc21 [Ralimetinib] (top concentration 10000 nM) . Its selective drug sensitivity score was -0.74

Entry under test: CC(C)Nc1cc(-c2c[nH]c(C(=O)N[C@H](CO)c3cccc(Cl)c3)c2)c(Cl)cn1 [Ulixertinib] (top concentration 10000 nM) . Its selective drug sensitivity score was 1.92

Entry under test: C[C@H](Nc1ncnc2nc[nH]c12)c1cc2cccc(Cl)c2c(=O)n1-c1ccccc1 [Duvelisib] (top concentration 500 nM) . Its selective drug sensitivity score was 9.76

Entry under test: CC(=O)O[C@]1(C(C)=O)CC[C@H]2[C@@H]3C=C(C)C4=CC(=O)CC[C@]4(C)[C@H]3CC[C@@]21C [Megestrol_acetate] (top concentration 10000 nM) . Its selective drug sensitivity score was 3.32

Entry under test: N.N.[Cl][Pt][Cl] [Cisplatin] (top concentration 100000 nM) . Its selective drug sensitivity score was 12

Entry under test: CCN1CCN(c2ccc(Nc3cc(N(C)C(=O)Nc4c(Cl)c(OC)cc(OC)c4Cl)ncn3)cc2)CC1 [Infigratinib] (top concentration 1000 nM) . Its selective drug sensitivity score was 0

Entry under test: Cc1ccc(-c2cc(C(F)(F)F)nn2-c2ccc(S(N)(=O)=O)cc2)cc1 [Celecoxib] (top concentration 10000 nM) . Its selective drug sensitivity score was 0.04

Entry under test: COc1ccc(-c2ccc3c(N4CCOC[C@@H]4C)nc(N4CCOC[C@@H]4C)nc3n2)cc1CO [AZD8055] (top concentration 10000 nM) . Its selective drug sensitivity score was 5.08

Entry under test: COc1cc2c(NC3CCN(C(C)C)CC3)nc(C3CCCCC3)nc2cc1OCCCN1CCCC1 [UNC0638] (top concentration 10000 nM) . Its selective drug sensitivity score was -4.64

Entry under test: Cc1cc(Nc2nc(N[C@@H](C)c3ncc(F)cn3)ncc2Cl)[nH]n1 [AZD1480] (top concentration 1000 nM) . Its selective drug sensitivity score was -0.98

Entry under test: O=C(O)CCCCC(CCSCc1ccccc1)SCc1ccccc1 (configuration not stated) [Devimistat (CPI-613)] (top concentration 10000 nM) . Its selective drug sensitivity score was 0

Entry under test: O=C(Nc1ccc2[nH]nc(-c3ccncc3)c2c1)[C@@H]1CCN(CC(=O)N2CCN(c3ccc(-c4ncccn4)cc3)CC2)C1 (top concentration 10000 nM) . Its selective drug sensitivity score was 0.06

Entry under test: C=CC[C@@H]1/C=C(\C)C[C@H](C)C[C@H](OC)[C@H]2O[C@@](O)(C(=O)C(=O)N3CCCC[C@H]3C(=O)O[C@H](/C(C)=C/[C@@H]3CC[C@@H](O)[C@H](OC)C3)[C@H](C)[C@@H](O)CC1=O)[C@H](C)C[C@@H]2OC [Tacrolimus] (top concentration 10000 nM) . Its selective drug sensitivity score was 8.58

Entry under test: FC(F)(F)c1ccc(CNc2ccc(Cc3c[nH]c4ncc(Cl)cc34)cn2)cn1 [Pexidartinib] (top concentration 10000 nM) . Its selective drug sensitivity score was 2.08

Entry under test: Cn1cnc2c(F)c(Nc3ccc(Br)cc3Cl)c(C(=O)NOCCO)cc21 [Selumetinib] (top concentration 10000 nM) . Its selective drug sensitivity score was 11

Entry under test: O=C1CCc2c(Oc3ccc4c(c3)[C@@H]3[C@H](O4)[C@H]3c3nc4cc(C(F)(F)F)ccc4[nH]3)ccnc2N1 [Lifirafenib (BGB-283)] (top concentration 10000 nM) . Its selective drug sensitivity score was 6.48
